Molecular target: T1, PSMA Fab (006 PSMA Fab)
T1 construct: also called Anti-PSMA Fab
Test: clonal phage ELISA on biotinylated PSMA Fab captured on neutravidin plates, anti-M13 HRP detection;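 further: crude clonal phage supernatants tested, before phage were added, wells were pretreated with PSMA antigen in blocking buffer or with blocking buffer only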
MEASURED PROPERTY: Phage binding ELISA signal, Anti-PSMA Fab
Reply briefly: the number, and no unit.

Solved cases (3 shown):
[
  {
    "BINDER": "LGKICSPAWMCSGF [Phage-3673]",
    "OBSERVED RESULT": 1.48
  },
  {
    "BINDER": "DAMMCKPTWMCDGF [Phage-3675]",
    "OBSERVED RESULT": 1.48
  },
  {
    "BINDER": "EMSLCIPAWMCSVF [Phage-3685]",
    "OBSERVED RESULT": 1.47
  }
]

--- query ---
Phage binding ELISA signal, Anti-PSMA Fab reported for this binder ADMRCVPDWMCHGF [Phage-3686] : 1.47

Recorded values, source patent US20260242478A1.
